Target: T1, Angiopoietin 2 (UniProt O15123)
T1 chain: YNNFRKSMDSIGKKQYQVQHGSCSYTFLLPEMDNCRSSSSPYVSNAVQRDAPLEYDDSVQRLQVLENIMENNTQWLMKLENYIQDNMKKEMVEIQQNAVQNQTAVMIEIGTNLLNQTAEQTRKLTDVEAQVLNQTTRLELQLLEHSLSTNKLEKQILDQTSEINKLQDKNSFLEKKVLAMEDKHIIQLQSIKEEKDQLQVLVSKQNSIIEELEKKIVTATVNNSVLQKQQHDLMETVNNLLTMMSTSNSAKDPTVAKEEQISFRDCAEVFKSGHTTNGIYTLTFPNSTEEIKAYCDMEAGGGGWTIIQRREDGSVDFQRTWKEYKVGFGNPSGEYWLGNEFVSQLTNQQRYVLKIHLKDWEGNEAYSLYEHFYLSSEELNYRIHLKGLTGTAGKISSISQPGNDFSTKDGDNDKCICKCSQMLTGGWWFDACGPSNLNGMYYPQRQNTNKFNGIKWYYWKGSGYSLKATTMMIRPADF
Test: competition, blocking Tie-2
Measured IC50 accompanies every entry in the list below.
measure: IC50 (nM)

- HC10/LC10 (antibody, V domains shown) VH: EVQLVESGGGLVQPGGSLRLSCAASGFTFSNYAMSWVRQAPGKGLEWVSWIYPDNGNTYYADSVKGRFTISRDNSKNTLYLQMNSLRAEDTAVYYCAKYSLDKYTPWPYSYYGMDVWGQGTLVTVSS VL: QSVLTQPPSASGTPGQRVTISCTGSSSNIGNNAVTWYQQLPGTAPKLLIYDDSHRPSGAPDRFSGSKSGTSASLAISGLRSEDEADYYCGTWDASLSAYVFGGGTKLTVL: 1.22
- HC2/LC2 (antibody, V domains shown) VH: EVQLLESGGGLVQPGGSLRLSCAASGFTFSNYAMSWVRQAPGKGLEWVSVISPGSGNTYYADSVKGRFTISRDNSKNTLYLQMNSLRAEDTAVYYCAKGALKCRHRSCSSYNAMDVWGQGTLVTVSS VL: QSVLTQPPSASGTPGQRVTISCTGSSSNIGNNDVSWYQQLPGTAPKLLIYDNNHRPSGVPDRFSGSKSGTSASLAISGLRSEDEADYYCGTWDASLNGYVFGGGTKLTVL: 0.06
- HC18/LC18 (antibody, V domains shown) VH: EVQLLESGGGLVQPGGSLRLSCAASGFTFSDYDMSWVRQAPGKGLEWVSWISPDDGSIYYADSVKGRFTISRDNSKNTLYLQMNSLRAEDTAVYYCARSVLPFDYWGQGTLVTVSS VL: QSVLTQPPSASGTPGQRVTISCSGSSSNIGSNAVYWYQQLPGTAPKLLIYDDSKRPSGVPDRFSGSKSGTSASLAISGFRSEDEADYYCGSWDASLNAYVFGGGTKLTVL: 2.85
